# measurement_target: Fuc(a1-2)[GalNAc(a1-3)]Gal(b1-4)GlcNAc(b1-3)Gal(b1-4)GlcNAc(b1-3)Gal(b1-4)GlcNAc
# assay_name: glycan array binding signal (z-score within array); higher = stronger binding
# test_conditions: glycan notation: IUPAC condensed, linker removed
The full list was thinned out, with the strongest signals kept by preference.
Label scheme for glycan array binding signal (z-score): lower than -0.04 is class 0, -0.04 and above is class 1.

INSERT INTO measurements (binder, classification) VALUES
  ('Clec12b (Mus musculus), Q149M0 (protein) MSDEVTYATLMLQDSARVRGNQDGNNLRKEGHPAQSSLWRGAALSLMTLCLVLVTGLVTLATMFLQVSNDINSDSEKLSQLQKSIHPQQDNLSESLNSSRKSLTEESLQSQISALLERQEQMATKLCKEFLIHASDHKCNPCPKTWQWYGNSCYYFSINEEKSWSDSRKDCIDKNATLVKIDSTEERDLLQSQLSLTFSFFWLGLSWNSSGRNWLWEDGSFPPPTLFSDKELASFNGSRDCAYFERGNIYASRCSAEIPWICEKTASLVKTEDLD', 'class 0'),
  ('rCnSL-A (Clitocybe nebularis) (protein) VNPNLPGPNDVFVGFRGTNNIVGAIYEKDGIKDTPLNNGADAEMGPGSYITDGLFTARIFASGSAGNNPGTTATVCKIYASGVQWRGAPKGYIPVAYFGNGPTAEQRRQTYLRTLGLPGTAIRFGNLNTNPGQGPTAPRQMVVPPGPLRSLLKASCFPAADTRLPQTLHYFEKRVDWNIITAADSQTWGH', 'class 1'),
  ('Gal 3 (Canis lupus) (protein) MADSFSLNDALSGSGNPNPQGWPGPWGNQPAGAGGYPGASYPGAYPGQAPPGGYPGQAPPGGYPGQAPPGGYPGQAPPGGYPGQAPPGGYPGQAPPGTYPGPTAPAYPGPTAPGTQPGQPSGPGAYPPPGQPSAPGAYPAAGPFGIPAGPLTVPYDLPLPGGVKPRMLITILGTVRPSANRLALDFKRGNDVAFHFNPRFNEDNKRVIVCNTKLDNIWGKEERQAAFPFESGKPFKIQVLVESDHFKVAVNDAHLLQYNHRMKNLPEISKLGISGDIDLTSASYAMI', 'class 1'),
  ('SJA (Sophora japonica) (protein) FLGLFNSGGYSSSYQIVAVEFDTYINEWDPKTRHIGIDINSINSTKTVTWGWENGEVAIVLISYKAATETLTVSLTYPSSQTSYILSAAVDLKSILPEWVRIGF', 'class 1'),
  ('OGAN (protein) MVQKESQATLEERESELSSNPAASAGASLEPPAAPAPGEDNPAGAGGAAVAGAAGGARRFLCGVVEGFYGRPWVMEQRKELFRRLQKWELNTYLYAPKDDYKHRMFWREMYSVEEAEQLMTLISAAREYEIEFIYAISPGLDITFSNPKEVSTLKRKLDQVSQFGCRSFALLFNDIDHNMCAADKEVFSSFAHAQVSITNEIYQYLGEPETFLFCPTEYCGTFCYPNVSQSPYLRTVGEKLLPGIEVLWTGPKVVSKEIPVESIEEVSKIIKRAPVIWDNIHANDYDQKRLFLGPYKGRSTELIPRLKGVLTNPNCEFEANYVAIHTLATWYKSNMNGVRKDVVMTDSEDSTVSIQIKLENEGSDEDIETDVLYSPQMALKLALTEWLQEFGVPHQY', 'class 0');

The measurements presented in this section are drawn from the supplement of paper PMC8728848.
